molecular target: KRas WT (Homo sapiens); construct: Biotinylated KRas (corresponding to amino acids 1-169, produced at Accelegan Inc.); biotin (biotinylated); purchased Accelegan Inc; assay: KRas binding assay, TR-FRET displacement of Cy5 labelled tracer; settings: 60-minute incubation at room temperature, 1% DMSO, pH 7.5
Sequence (P01116 1-169 isoform P01116-2): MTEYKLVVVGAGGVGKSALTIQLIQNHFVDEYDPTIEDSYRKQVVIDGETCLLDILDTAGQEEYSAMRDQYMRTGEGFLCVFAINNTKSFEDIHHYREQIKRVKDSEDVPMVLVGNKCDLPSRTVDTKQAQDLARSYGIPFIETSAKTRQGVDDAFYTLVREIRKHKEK
observable: IC50 (nM)

a: CCc1c(F)ccc2cc(O)cc(-c3ncc4c(N5C[C@H]6CC(C(=O)n7ccc(C)n7)C[C@H]6C5)nc(OC[C@@]56CCCN5C[C@H](F)C6)nc4c3F)c12 (stereo partly shown)
b: N#Cc1c(N)sc2c(F)ccc(-c3c(Cl)cc4c(N5CCN(C(=O)n6ccnn6)CC5)nc(OC[C@@]56CCCN5C[C@H](F)C6)nc4c3F)c12
c: Cc1ccn(C(=O)C2CCCCCN(c3nc(OC[C@@]45CCCN4C[C@H](F)C5)nc4c(F)c(-c5ccc(F)c6sc(N)c(C#N)c56)c(Cl)cc34)C2)n1 (stereo partly shown)
d: N#Cc1c(N)sc2c(F)ccc(-c3c(Cl)cc4c(N5CCC(C(=O)Oc6cccc(F)c6)CC5)nc(OC[C@@]56CCCN5C[C@H](F)C6)nc4c3F)c12
Reorder: IC50, max to min. When ranking, write the labels in the order the request describes.
a, d, c, b

A: CN(CCCC(=O)N(C)c1cccnc1)c1nc(OC[C@@]23CCCN2C[C@H](F)C3)nc2c(F)c(-c3ccc(F)c4sc(N)c(C#N)c34)c(Cl)cc12
B: CN1CC2(CCN(c3nc(OC[C@@]45CCCN4C[C@H](F)C5)nc4c(F)c(-c5ccc(F)c6sc(N)c(C#N)c56)c(Cl)cc34)CC2)C1=O
Would you let me know which has the greater IC50 value, A or B ? Respond with the label that goes with your answer.
A

1: Cc1ccn(C(=O)C2CCCN(c3nc(OC[C@@]45CCCN4C[C@H](F)C5)nc4c(F)c(-c5nc(N)ccc5C)c(Cl)cc34)CC2)n1 (stereo partly shown)
2: CCc1c(F)ccc2cc(O)cc(N3CCc4c(nc(OC[C@@]56CCCN5C[C@H](F)C6)nc4N4CCCC(C(=O)n5ccc(C)n5)C4)C3)c12 (stereo partly shown)
Would you let me know which has the greater IC50 value, 1 or 2 ? Respond with the label that goes with your answer.
1

###

target: KRas-mediated phosphorylation of ERK in MKN1 cells (Homo sapiens); construct: pERK HTRF read-out; test: Inhibition of KRas-mediated phosphorylation of ERK (HTRF), MKN1 cells; assay type: cell-based; conditions: MKN1 cells (KRas WT); HTRF pERK; 3 h incubation
Sequence (P01116 1-188 isoform P01116-2): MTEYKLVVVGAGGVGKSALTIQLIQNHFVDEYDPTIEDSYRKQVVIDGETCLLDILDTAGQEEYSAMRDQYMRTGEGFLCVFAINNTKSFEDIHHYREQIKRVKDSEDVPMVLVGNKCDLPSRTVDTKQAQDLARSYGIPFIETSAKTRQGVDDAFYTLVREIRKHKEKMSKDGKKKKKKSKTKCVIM
observable: IC50 (nM)

Consider the reported IC50 for these compounds:
{"compound": "CCc1c(F)ccc2cc(O)cc(N3CCc4c(nc(OC[C@@]56CCCN5C[C@H](F)C6)nc4N4CCC(C(=O)n5ccc(C)n5)C4)C3)c12 (stereo partly drawn)", "target-or-test-system": "KRas-mediated phosphorylation of ERK in MKN1 cells (Homo sapiens)", "unit-abbreviation": "nM", "IC50": 4950}
{"compound": "N#Cc1c(N)sc2c(F)ccc(-c3c(Cl)cc4c(N5CCC(C(=O)Oc6ccc(Cl)cc6)CC5)nc(OC[C@@]56CCCN5C[C@H](F)C6)nc4c3F)c12", "target-or-test-system": "KRas-mediated phosphorylation of ERK in MKN1 cells (Homo sapiens)", "unit-abbreviation": "nM", "IC50": 264}
{"compound": "CCc1c(F)ccc2cc(O)cc(-c3ncc4c(N5C[C@H]6CC[C@@]6(C(=O)n6ccc(C)n6)C5)nc(OC[C@@]56CCCN5C[C@H](F)C6)nc4c3F)c12", "target-or-test-system": "KRas-mediated phosphorylation of ERK in MKN1 cells (Homo sapiens)", "unit-abbreviation": "nM", "IC50": 517}

A: CC(=O)N(C)C(=O)CCCNc1nc(OC[C@@]23CCCN2C[C@H](F)C3)nc2c(F)c(-c3ccc(F)c4sc(N)c(C#N)c34)c(Cl)cc12
B: CCc1c(F)ccc2cc(O)cc(-c3ncc4c(N5CCN(C(=O)n6ccnc6)CC5)nc(OC[C@@]56CCCN5C[C@H](F)C6)nc4c3F)c12
C: CCc1c(F)ccc2cc(O)cc(-c3ncc4c(N5CCN(C(=O)n6ccc(C)n6)C(CF)C5)nc(OC[C@@]56CCCN5C[C@H](F)C6)nc4c3F)c12 (stereo partly drawn)
Reorder: IC50, max to min. When ranking, write the labels in the order the request describes.
C, A, B
(C: 219 nM, A: 84 nM, B: 40 nM)
